Values from ChEMBL document CHEMBL1136174

The compounds listed here are annotated with their IC50.
Target: Phospho-N-acetylmuramoyl-pentapeptide-transferase (Escherichia coli K-12, UniProt P0A6W3)
Sequence (P0A6W3 whole entry): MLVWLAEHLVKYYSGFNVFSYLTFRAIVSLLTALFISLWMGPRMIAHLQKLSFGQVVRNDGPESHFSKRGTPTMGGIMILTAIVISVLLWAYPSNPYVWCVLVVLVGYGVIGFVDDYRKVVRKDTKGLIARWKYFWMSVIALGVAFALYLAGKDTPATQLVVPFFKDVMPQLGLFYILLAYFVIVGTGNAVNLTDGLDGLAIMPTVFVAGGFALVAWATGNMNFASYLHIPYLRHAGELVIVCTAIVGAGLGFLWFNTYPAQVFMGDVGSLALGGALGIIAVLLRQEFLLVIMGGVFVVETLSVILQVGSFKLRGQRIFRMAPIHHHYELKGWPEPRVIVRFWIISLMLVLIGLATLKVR
All answers are understood in nM, so give the number only.

Below, 3 compounds whose answers are already recorded.
What measured IC50 is associated with CO[C@H]1[C@@H](O)[C@H](n2ccc(=O)[nH]c2=O)O[C@@H]1[C@@H](O[C@H]1OC(C(=O)NCCCSC)=C[C@H](O)[C@@H]1O)C(N)=O on Phospho-N-acetylmuramoyl-pentapeptide-transferase (Escherichia coli K-12, UniProt P0A6W3)? 128

Give Phospho-N-acetylmuramoyl-pentapeptide-transferase (Escherichia coli K-12, UniProt P0A6W3) IC50 for CO[C@H]1[C@@H](O)[C@H](n2ccc(=O)[nH]c2=O)O[C@@H]1[C@@H](O[C@H]1OC(C(=O)NCCc2cccc(Cl)c2)=C[C@H](O)[C@@H]1O)C(N)=O 33.5

Fill in the recorded IC50 for this compound, with Phospho-N-acetylmuramoyl-pentapeptide-transferase (Escherichia coli K-12, UniProt P0A6W3) as test system: CO[C@H]1[C@@H](O)[C@H](n2ccc(=O)[nH]c2=O)O[C@@H]1[C@@H](O[C@H]1OC(C(=O)N[C@H]2CCCCNC2=O)=C[C@H](O)[C@@H]1O)C(N)=O 18

More entries:
Short answer please: IC50, Phospho-N-acetylmuramoyl-pentapeptide-transferase (Escherichia coli K-12, UniProt P0A6W3), entry CO[C@H]1[C@@H](O)[C@H](n2ccc(=O)[nH]c2=O)O[C@@H]1[C@@H](O[C@H]1OC(C(=O)Nc2cccc(F)c2F)=C[C@H](O)[C@@H]1O)C(N)=O 22.8

Give the reported IC50 for CO[C@H]1[C@@H](O)[C@H](n2ccc(=O)[nH]c2=O)O[C@@H]1[C@@H](O[C@H]1OC(C(=O)NCC(c2ccccc2)c2ccccc2)=C[C@H](O)[C@@H]1O)C(N)=O (system: Phospho-N-acetylmuramoyl-pentapeptide-transferase (Escherichia coli K-12, UniProt P0A6W3)). 204

----------
Test system: Mycolicibacterium smegmatis
Assay: Antimycobacterial activity against Mycobacterium smegmatis (SANK 75075)
Format: functional
measured_attribute: MIC (µg/mL)
Enter your answer as a number in µg/mL; do not include the unit.

Here is how some compounds turned out for MIC.
Given the compound CO[C@H]1[C@@H](O)[C@H](n2ccc(=O)[nH]c2=O)O[C@@H]1[C@@H](O[C@H]1OC(C(=O)NCCc2ccc(O)cc2)=C[C@H](O)[C@@H]1O)C(N)=O , what is its reported MIC? 50

What value of MIC has been reported for the following compound? CO[C@H]1[C@@H](O)[C@H](n2ccc(=O)[nH]c2=O)O[C@@H]1[C@@H](O[C@H]1OC(C(=O)NCc2ccc3ccccc3c2)=C[C@H](O)[C@@H]1O)C(N)=O 25

So what's the measured MIC for this one? CO[C@H]1[C@@H](O)[C@H](n2ccc(=O)[nH]c2=O)O[C@@H]1[C@@H](O[C@H]1OC(C(=O)NCCc2ccc(C)cc2)=C[C@H](O)[C@@H]1O)C(N)=O 50

Would you mind telling me what MIC value was observed for CO[C@H]1[C@@H](O)[C@H](n2ccc(=O)[nH]c2=O)O[C@@H]1[C@@H](O[C@H]1OC(C(=O)N[C@H]2CCC[C@@H](C)NC2=O)=C[C@H](O)[C@@H]1O)C(N)=O ? 6.25

Would you kindly share the measured MIC for CO[C@H]1[C@@H](O)[C@H](n2ccc(=O)[nH]c2=O)O[C@@H]1[C@@H](O[C@H]1OC(C(=O)Nc2ccc(C)cc2C)=C[C@H](O)[C@@H]1O)C(N)=O ? 25

Continuing:
Which MIC is reported for this compound? CO[C@H]1[C@@H](O)[C@H](n2ccc(=O)[nH]c2=O)O[C@@H]1[C@@H](O[C@H]1OC(C(=O)Nc2ccc(F)c(F)c2)=C[C@H](O)[C@@H]1O)C(N)=O 6.25

Dear colleague, I am looking for the recorded MIC of the following compound: CO[C@H]1[C@@H](O)[C@H](n2ccc(=O)[nH]c2=O)O[C@@H]1[C@@H](O[C@H]1OC(C(=O)N[C@@H](C)c2ccccc2)=C[C@H](O)[C@@H]1O)C(N)=O 50

Fill blank: measured MIC of the compound CO[C@H]1[C@@H](O)[C@H](n2ccc(=O)[nH]c2=O)O[C@@H]1[C@@H](O[C@H]1OC(C(=O)Nc2ccc(Br)cc2)=C[C@H](O)[C@@H]1O)C(N)=O is ____. 6.25

Reported MIC, compound CO[C@H]1[C@@H](O)[C@H](n2ccc(=O)[nH]c2=O)O[C@@H]1[C@@H](O[C@H]1OC(C(=O)Nc2nccs2)=C[C@H](O)[C@@H]1O)C(N)=O : ____ 25

Can you share its MIC? I mean this compound: CCc1ccc(NC(=O)C2=C[C@H](O)[C@H](O)[C@@H](O[C@@H](C(N)=O)[C@H]3O[C@@H](n4ccc(=O)[nH]c4=O)[C@H](O)[C@@H]3OC)O2)cc1 12.5

----------
Tested on: Mycolicibacterium smegmatis
Assay: Antimycobacterial activity against Mycobacterium smegmatis (SANK 75075)
Format: functional
measured_attribute: MIC (µg/mL)
The reply should contain only the number, in µg/mL.

Give the measured MIC of CO[C@H]1[C@@H](O)[C@H](n2ccc(=O)[nH]c2=O)O[C@@H]1[C@@H](O[C@H]1OC(C(=O)NCCc2ccccc2Cl)=C[C@H](O)[C@@H]1O)C(N)=O . 25

Next item in the queue.
Can you look up the measured MIC of CO[C@H]1[C@@H](O)[C@H](n2ccc(=O)[nH]c2=O)O[C@@H]1[C@@H](O[C@H]1OC(C(=O)Nc2ccccc2)=C[C@H](O)[C@@H]1O)C(N)=O for me? 6.25

----------
Here, each record is paired with measured pIC50 data.
Target sequence: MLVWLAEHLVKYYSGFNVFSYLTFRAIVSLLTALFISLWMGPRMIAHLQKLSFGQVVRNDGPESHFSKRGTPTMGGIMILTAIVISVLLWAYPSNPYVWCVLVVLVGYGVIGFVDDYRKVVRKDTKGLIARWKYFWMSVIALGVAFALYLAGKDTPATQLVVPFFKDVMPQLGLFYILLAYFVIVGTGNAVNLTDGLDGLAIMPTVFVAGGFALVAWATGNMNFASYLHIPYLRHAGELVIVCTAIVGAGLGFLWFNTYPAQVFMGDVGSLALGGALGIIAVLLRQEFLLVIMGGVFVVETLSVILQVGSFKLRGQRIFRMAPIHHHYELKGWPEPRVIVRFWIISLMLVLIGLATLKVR
A value of pIC50 is the negative decimal logarithm of a concentration given in moles per litre.

Consider the reported pIC50 for these compounds:
I'd like to know its pIC50. The compound in question is CO[C@H]1[C@@H](O)[C@H](n2ccc(=O)[nH]c2=O)O[C@@H]1[C@@H](O[C@H]1OC(C(=O)Nc2ccc(Cl)cc2)=C[C@H](O)[C@@H]1O)C(N)=O 7.50

Report pIC50 for CO[C@H]1[C@@H](O)[C@H](n2ccc(=O)[nH]c2=O)O[C@@H]1[C@@H](O[C@H]1OC(C(=O)NCc2ccc(C)cc2)=C[C@H](O)[C@@H]1O)C(N)=O please. 5.67

Any idea what pIC50 was measured for CO[C@H]1[C@@H](O)[C@H](n2ccc(=O)[nH]c2=O)O[C@@H]1[C@@H](O[C@H]1OC(C(=O)NCc2ccccc2C)=C[C@H](O)[C@@H]1O)C(N)=O ? 6.05

State the recorded pIC50 for this entry: CO[C@H]1[C@@H](O)[C@H](n2ccc(=O)[nH]c2=O)O[C@@H]1[C@@H](O[C@H]1OC(C(=O)Nc2cccc(C)c2)=C[C@H](O)[C@@H]1O)C(N)=O 7.86

For the compound CO[C@H]1[C@@H](O)[C@H](n2ccc(=O)[nH]c2=O)O[C@@H]1[C@@H](O[C@H]1OC(C(=O)NCc2cccs2)=C[C@H](O)[C@@H]1O)C(N)=O , what pIC50 is on record? 6.86

As a next step, examine the compound that follows.
Can you share its pIC50? I mean this compound: CO[C@H]1[C@@H](O)[C@H](n2ccc(=O)[nH]c2=O)O[C@@H]1[C@@H](O[C@H]1OC(C(=O)Nc2nccs2)=C[C@H](O)[C@@H]1O)C(N)=O 7.48
